# assayedSystem: Recombinant KAT6A/MOZ (488-778) protein (Homo sapiens (Human))
# Sequence (Q92794 488-778): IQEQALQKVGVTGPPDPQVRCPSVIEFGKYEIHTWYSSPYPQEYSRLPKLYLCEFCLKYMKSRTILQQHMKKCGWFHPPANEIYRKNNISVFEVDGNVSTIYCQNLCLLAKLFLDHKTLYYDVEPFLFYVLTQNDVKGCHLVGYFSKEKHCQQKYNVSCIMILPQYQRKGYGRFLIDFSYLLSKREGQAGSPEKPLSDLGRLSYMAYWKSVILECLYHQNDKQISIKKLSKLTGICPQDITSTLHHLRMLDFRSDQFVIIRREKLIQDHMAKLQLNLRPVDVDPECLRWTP
# procedureText: KAT6A AlphaLISA Inhibition Screening Assay
# Format: biochemical
# settings: read-out: Average Kat6A % inhibition @ 10 μM; 10 μM test compound
observable: inhibition at 10 µM
I'd appreciate it if you wrote the number followed by its unit.

Quote Recombinant KAT6A/MOZ (488-778) protein (Homo sapiens (Human)) inhibition at 10 µM for entry CCc1ccc(OC)c(S(=O)(=O)Nc2noc3cc(Cn4cc(CNC(=O)C(C)F)cn4)cc(OC)c23)c1 (stereo not drawn) [Syn. Ex. 47] . 96%

Retrieve inhibition at 10 µM on Recombinant KAT6A/MOZ (488-778) protein (Homo sapiens (Human)); query C=C(F)C(=O)NCc1cnn(Cc2cc(OC)c3c(NS(=O)(=O)c4cc(CC)ccc4OCCC#N)noc3c2)c1 [Syn. Ex. 84] 100%

Look up and report measured inhibition at 10 µM (Recombinant KAT6A/MOZ (488-778) protein (Homo sapiens (Human))) for the following compound: CCc1ccc(OC)c(S(=O)(=O)Nc2noc3cc(Cn4cc(CNC(=O)OCCO)cn4)cc(OC)c23)c1 [Syn. Ex. 34] 100%

Report its inhibition at 10 µM with Recombinant KAT6A/MOZ (488-778) protein (Homo sapiens (Human)) as the test system: COc1cc(C)c(C)cc1S(=O)(=O)Nc1noc2cc(Cn3cc(CNS(C)(=O)=O)cn3)cc(OC)c12 [Syn. Ex. 20] 100%

Answer with inhibition at 10 µM of C=C(F)C(=O)NCc1cnn(Cc2cc(OC)c3c(NS(=O)(=O)c4cc(CC)ccc4OCC(=O)OC)noc3c2)c1 [Syn. Ex. 54] measured for Recombinant KAT6A/MOZ (488-778) protein (Homo sapiens (Human)). 97%

Enter inhibition at 10 µM (test system Recombinant KAT6A/MOZ (488-778) protein (Homo sapiens (Human))) for CCOc1cc(C)ccc1S(=O)(=O)Nc1noc2cc(Cn3cc(CNC(=O)OC)cn3)cc(OC)c12 [Syn. Ex. 136] 99%

State the measured inhibition at 10 µM (Recombinant KAT6A/MOZ (488-778) protein (Homo sapiens (Human))) of C#CC(=O)NCc1cnn(Cc2cc(OC(F)F)c3c(NS(=O)(=O)c4cc(CC)ccc4OC)noc3c2)c1 [Syn. Ex. 53] 100%

Ref: patent US20250122182A1
